# Procedure Text: APR_HepG2_MitoticArrest_1hr: Apredica 1-hour HepG2 Assay for Mitotic Arrest (AID 2282672)
# Stated Conditions: high-content imaging, actives raise or lower the signal
Active and inactive are the calls of the source. How the source made its calls: active means hit-call score of the fitted dose curve at least 0.9, where 1 is the maximum; inactive means score below 0.9.
Metric Name: outcome

Answered cases to consult:
Q) What value of measured outcome is listed for `CCOCN(C(=O)CCl)c1c(C)cccc1CC` ?
A) inactive

Q) Again, but for `COP(=S)(OC)Oc1ccc(SC)c(C)c1`
A) inactive

Q) Continue with CCC(C)(NC(=O)c1cc(Cl)c(C)c(Cl)c1)C(=O)CCl (configuration not stated)
A) inactive

Q) Same thing, different compound: CC1(c2ccc(Oc3ccccc3)cc2)OC(=O)N(Nc2ccccc2)C1=O (configuration not stated)
A) inactive

Q) Entry `N#CN` please
A) inactive

Dear colleague, could you please provide outcome for the compounds listed below?
1. Cc1cc(C)nc(NC(=O)NS(=O)(=O)c2ccccc2C(=O)OC2COC2)n1
2. C#CCN1C(=O)COc2cc(F)c(N3C(=O)C4=C(CCCC4)C3=O)cc21

A)
["inactive", "inactive"]

// input: 7 compounds below; output: outcome for each
1. CNC(=O)Oc1cccc(N=CN(C)C)c1
2. CCc1ccc(C(=O)NN(C(=O)c2cc(C)cc(C)c2)C(C)(C)C)cc1
3. O=C(O)COc1ccc(Cl)cc1Cl
4. O=C1c2ccccc2C(=O)N1SC(Cl)(Cl)Cl
5. O=C(NC(=O)c1c(F)cccc1F)Nc1ccc(OC(F)(F)C(F)OC(F)(F)F)c(Cl)c1 (configuration not stated)
6. CCS(=O)(=O)c1cccnc1S(=O)(=O)NC(=O)Nc1nc(OC)cc(OC)n1
7. COc1cc(OC)nc(NC(=O)NS(=O)(=O)c2cc(NC=O)ccc2C(=O)N(C)C)n1

A)
["inactive", "inactive", "inactive", "inactive", "inactive", "inactive", "inactive"]

Required: outcome, one value per compound below.
1. OCCOc1ccccc1
2. O=S(=O)(O)C(F)(F)C(F)(F)C(F)(F)C(F)(F)C(F)(F)C(F)(F)C(F)(F)C(F)(F)F
3. CCC(C)Nc1c([N+](=O)[O-])cc(C(C)(C)C)cc1[N+](=O)[O-] (configuration not stated)
4. CNC(=O)Oc1ccccc1OC(C)C
5. COc1nn(CSP(=S)(OC)OC)c(=O)s1
6. CC(C)(C)C(O)C(Oc1ccc(Cl)cc1)n1cncn1 (configuration not stated)
7. Oc1cc(Cl)ccc1Oc1ccc(Cl)cc1Cl
8. O=C(O)CCCOc1ccc(Cl)cc1Cl

A)
inactive
inactive
inactive
inactive
inactive
inactive
inactive
inactive
